Provenance of the data: ChEMBL document CHEMBL1136957

A collection of compounds and their measured IC50
- MEASUREMENT DESCRIPTION: Inhibition of tubulin assembly
RECORDED ENDPOINT: IC50

INSERT INTO results (structure_string, test_result) VALUES
  ('COc1ccc(-c2cc(=O)c3c(O)c(OC)c(OC)c(OC)c3o2)cc1O', '86 µM'),
  ('COc1ccc(-c2oc3c(OC)c(OC)c(OC)c(O)c3c(=O)c2OC)cc1O', '10 µM');
